Data provenance is ChEMBL document CHEMBL1151943.

- Target Under Test: Glutamate receptor ionotropic, kainate 2 (Rattus norvegicus, UniProt P42260)
- Sequence (P42260 whole entry, canonical isoform): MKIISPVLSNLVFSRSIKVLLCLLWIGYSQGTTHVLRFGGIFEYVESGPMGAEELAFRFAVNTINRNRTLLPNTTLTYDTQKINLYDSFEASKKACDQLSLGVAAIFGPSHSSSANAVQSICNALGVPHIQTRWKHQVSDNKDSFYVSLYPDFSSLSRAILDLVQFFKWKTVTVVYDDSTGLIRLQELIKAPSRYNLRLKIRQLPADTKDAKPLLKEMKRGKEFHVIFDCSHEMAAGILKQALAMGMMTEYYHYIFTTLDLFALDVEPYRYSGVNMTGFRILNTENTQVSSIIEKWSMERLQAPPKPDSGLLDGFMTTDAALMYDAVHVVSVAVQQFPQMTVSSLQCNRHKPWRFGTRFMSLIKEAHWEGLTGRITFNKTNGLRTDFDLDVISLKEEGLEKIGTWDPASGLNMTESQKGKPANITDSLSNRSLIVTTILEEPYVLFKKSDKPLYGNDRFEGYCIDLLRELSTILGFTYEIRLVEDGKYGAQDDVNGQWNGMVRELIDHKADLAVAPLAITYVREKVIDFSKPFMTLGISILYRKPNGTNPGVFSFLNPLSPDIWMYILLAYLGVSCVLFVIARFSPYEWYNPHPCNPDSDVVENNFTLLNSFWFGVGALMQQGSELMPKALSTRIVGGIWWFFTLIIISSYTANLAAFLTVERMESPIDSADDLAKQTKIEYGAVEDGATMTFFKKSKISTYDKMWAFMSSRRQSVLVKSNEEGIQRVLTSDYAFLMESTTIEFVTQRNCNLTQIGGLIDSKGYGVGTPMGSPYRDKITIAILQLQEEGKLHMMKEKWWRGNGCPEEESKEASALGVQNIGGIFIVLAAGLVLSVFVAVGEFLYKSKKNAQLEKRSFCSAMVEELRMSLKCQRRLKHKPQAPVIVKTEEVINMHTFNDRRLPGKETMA
- Procedure Summary: Agonist activity at rat recombinant GluR6(Q) RNA-edited isoform expressed in HEK293 cells assessed as increase in intracellular calcium level by Fluo-4/AM assay
Quantity Kind: EC50

Query: Which measured EC50 belongs to CC1CCC=C(C[C@H](N)C(=O)O)c2c(O)noc21 (mixture of isomers) , tested on Glutamate receptor ionotropic, kainate 2 (Rattus norvegicus, UniProt P42260)?
Result: > 1000 µM

* * *

- Target Under Test: Glutamate NMDA receptor
- Procedure Summary: Displacement of […] from NMDA receptor in rat cortical synaptosomes
- Format: subcellular, Brain
Quantity Kind: Ki

Query: What does the data say about its Ki? Entry: CC(C)(C)c1o[nH]c(=O)c1C[C@H](N)C(=O)O
Result: > 100 µM

* * *

- Target Under Test: Glutamate receptor 3 (Rattus norvegicus, UniProt P19492)
- Sequence (P19492 whole entry, canonical isoform): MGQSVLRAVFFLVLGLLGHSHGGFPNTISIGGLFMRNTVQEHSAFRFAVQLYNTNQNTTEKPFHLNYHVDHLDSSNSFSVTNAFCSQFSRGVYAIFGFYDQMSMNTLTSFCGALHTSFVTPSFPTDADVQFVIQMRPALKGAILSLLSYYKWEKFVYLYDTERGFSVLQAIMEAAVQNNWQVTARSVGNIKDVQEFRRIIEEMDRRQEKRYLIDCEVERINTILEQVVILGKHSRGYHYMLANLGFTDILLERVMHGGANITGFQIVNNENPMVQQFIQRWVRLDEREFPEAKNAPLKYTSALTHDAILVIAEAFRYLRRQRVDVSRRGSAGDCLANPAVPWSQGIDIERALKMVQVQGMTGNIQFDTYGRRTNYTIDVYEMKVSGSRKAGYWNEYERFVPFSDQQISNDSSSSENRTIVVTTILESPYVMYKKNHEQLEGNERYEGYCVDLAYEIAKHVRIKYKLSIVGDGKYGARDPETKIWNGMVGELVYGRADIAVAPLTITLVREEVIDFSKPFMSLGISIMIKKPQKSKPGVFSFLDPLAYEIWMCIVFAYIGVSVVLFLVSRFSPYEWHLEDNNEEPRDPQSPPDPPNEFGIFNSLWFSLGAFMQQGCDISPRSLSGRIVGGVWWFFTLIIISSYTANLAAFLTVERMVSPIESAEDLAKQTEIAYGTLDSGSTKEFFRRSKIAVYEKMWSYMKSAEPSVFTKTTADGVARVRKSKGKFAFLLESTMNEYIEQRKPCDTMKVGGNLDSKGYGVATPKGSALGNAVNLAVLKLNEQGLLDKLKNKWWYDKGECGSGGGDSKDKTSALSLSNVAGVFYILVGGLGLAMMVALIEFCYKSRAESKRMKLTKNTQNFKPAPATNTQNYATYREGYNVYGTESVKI
- Procedure Summary: Displacement of [3H]AMPA from rat recombinant GluR3 flop isoform expressed in baculovirus infected Sf9 cells
# Ki listing for each entry below
Numbers only here, please. The scale is nM.

| Compound | Quantity Unit | Ki |
| --- | --- | --- |
| CC(C)(C)c1o[nH]c(=O)c1C[C@H](N)C(=O)O | nM | 2040 |
| CC1CCC=C(C[C@H](N)C(=O)O)c2c(O)noc21 (mixture of isomers) | nM | 1110 |

Query: What does the data say about its Ki? Entry: N[C@@H](CC1=CCCCc2onc(O)c21)C(=O)O
Result: 173

* * *

- Target Under Test: Glutamate receptor 4 (Rattus norvegicus, UniProt P19493)
- Sequence (P19493 whole entry, canonical isoform): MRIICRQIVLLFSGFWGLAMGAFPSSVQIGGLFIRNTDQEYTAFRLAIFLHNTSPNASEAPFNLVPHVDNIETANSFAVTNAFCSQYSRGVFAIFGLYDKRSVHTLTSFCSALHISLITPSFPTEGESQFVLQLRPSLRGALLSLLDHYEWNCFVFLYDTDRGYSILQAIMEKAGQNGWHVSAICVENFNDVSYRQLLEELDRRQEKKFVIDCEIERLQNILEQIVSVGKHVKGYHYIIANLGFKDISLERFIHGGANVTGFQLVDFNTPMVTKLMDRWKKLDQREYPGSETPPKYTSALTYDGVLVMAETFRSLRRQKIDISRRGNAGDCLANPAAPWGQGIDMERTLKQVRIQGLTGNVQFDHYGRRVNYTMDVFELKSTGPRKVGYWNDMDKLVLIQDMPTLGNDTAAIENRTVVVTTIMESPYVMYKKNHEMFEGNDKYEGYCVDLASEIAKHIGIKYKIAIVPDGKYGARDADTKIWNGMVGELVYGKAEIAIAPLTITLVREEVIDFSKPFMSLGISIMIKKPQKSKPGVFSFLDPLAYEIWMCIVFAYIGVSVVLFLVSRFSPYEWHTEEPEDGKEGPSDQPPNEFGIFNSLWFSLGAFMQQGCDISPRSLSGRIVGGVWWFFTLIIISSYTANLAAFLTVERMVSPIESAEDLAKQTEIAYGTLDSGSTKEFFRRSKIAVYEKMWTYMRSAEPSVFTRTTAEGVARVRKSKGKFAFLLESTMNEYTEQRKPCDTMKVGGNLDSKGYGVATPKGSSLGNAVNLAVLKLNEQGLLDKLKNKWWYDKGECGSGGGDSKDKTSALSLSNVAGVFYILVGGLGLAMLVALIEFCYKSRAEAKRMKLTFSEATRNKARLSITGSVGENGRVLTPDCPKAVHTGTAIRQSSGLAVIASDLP
- Procedure Summary: Displacement of [3H]AMPA from rat recombinant GluR4 flop isoform expressed in baculovirus infected Sf9 cells
# Ki listing for each entry below

Some entries whose results are on file:
| Compound | Quantity Kind | Observed Value |
| --- | --- | --- |
| N[C@@H](CC1=CCCCc2onc(O)c21)C(=O)O | Ki | 202 nM |
| CC1CCC=C(C[C@H](N)C(=O)O)c2c(O)noc21 (mixture of isomers) | Ki | 2200 nM |

--- query ---
Query: What does the data say about its Ki? Entry: CC(C)(C)c1o[nH]c(=O)c1C[C@H](N)C(=O)O
Result: 2140 nM

* * *

- Target Under Test: Glutamate receptor ionotropic, kainate 1 (Rattus norvegicus, UniProt P22756)
- Sequence (P22756 whole entry): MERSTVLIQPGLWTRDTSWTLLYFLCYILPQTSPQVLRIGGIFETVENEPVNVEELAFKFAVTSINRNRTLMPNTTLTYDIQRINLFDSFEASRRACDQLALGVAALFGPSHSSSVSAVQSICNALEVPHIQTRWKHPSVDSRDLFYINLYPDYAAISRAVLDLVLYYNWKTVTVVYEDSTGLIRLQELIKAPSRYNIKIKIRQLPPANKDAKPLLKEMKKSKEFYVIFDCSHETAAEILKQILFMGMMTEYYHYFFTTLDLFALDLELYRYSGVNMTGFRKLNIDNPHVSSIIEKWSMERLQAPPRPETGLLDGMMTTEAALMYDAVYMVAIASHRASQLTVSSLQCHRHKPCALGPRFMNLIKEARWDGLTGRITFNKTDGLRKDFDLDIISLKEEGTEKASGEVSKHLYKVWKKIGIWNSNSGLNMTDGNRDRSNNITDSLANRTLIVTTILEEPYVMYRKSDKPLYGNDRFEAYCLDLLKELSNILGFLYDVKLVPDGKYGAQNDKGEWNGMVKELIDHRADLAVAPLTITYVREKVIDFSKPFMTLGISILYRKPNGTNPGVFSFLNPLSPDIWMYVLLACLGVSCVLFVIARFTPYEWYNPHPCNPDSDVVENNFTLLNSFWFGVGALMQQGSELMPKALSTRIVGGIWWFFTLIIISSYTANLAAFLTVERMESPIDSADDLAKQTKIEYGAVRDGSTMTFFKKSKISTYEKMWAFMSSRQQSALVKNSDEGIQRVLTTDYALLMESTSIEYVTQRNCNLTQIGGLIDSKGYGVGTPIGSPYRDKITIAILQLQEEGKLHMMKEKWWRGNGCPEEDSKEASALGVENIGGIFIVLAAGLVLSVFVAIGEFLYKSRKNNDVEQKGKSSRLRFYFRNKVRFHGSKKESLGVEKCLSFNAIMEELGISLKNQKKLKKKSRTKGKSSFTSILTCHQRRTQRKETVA
Quantity Kind: pEC50
Quick note: pEC50 values are minus log10 of concentrations in mol/L.

Query: Which measured pEC50 belongs to CC1CCC=C(C[C@H](N)C(=O)O)c2c(O)noc21 (mixture of isomers) , tested on Glutamate receptor ionotropic, kainate 1 (Rattus norvegicus, UniProt P22756)?
Result: 6.07

* * *

- Target Under Test: Glutamate receptor 4 (Rattus norvegicus)
- Procedure Summary: Agonist activity at rat recombinant GluR4 flip isomer expressed in HEK293 cells assessed as increase in intracellular calcium level by Fluo-4/AM assay
- Format: functional, cell-based
- Experimental Parameters: read-out: EC50
# EC50 listing for each entry below
Numbers only here, please. The scale is µM.

Some entries whose results are on file:
| Compound | Observed Value |
| --- | --- |
| C=C(C)[C@H]1CN[C@H](C(=O)O)[C@H]1CC(=O)O | 47 |
| N[C@@H](CC1=CCCCc2onc(O)c21)C(=O)O | 6.7 |

--- query ---
Query: Which measured EC50 belongs to CC1CCC=C(C[C@H](N)C(=O)O)c2c(O)noc21 (mixture of isomers) , tested on Glutamate receptor 4 (Rattus norvegicus)?
Result: 35
